- Test system: Rb
- Test protocol: siRNA transfection array, Rb EGFP reporter, HepG2 cells
- Format: cell-based, human
- Study conditions: EGFP intensity relative to Scramble II Duplex negative control (100%)
Result type: Rb, relative intensity ratio (%)
// note: answer is a bare numeric in %

Worked set:
p53 siRNA: siRNA SEQ ID NO: 76 (Dharmacon), targets human p53 AF307851 (GACUCCAGUGGUAAUCUAC; chemistry not given here)
181.7
RARB2 siRNA: siRNA SEQ ID NO: 67 (Dharmacon), targets human RARB transcript variant 2 NM_016152 (GACGGCCUUACCCUAAAUC; chemistry not given here)
137.0
STAT1b siRNA: siRNA SEQ ID NO: 72 (Dharmacon), targets human transcription factor ISGF-3 M97936 (GGAAGACCCAAUCCAGAUG; chemistry not given here)
150.9
Rb siRNA: siRNA SEQ ID NO: 69 (Dharmacon), targets human retinoblastoma susceptibility mRNA M15400 (CUCUCACCUCCCAUGUUGC; chemistry not given here)
395.2
E2F siRNA: siRNA SEQ ID NO: 56 (Dharmacon), targets human E2F-1 M96577 (CUGACCAUCAGUACCUGGC; chemistry not given here)
296.1

c-Jun siRNA: siRNA SEQ ID NO: 54 (Dharmacon), targets human c-jun J04111 (GGUGGCACAGCUUAAACAG; chemistry not given here) has a reported Rb, relative intensity ratio of 516.4

STAT2 siRNA: siRNA SEQ ID NO: 73 (Dharmacon), targets human interferon alpha induced transcriptional activator M97934 (GGUGCUCAUCUACUCUGUG; chemistry not given here) has a reported Rb, relative intensity ratio of 104.2

STAT3 siRNA: siRNA SEQ ID NO: 74 (Dharmacon), targets human DNA-binding protein APRF L29277 (GAAACUGGAGGAGUUGCAC; chemistry not given here) has a reported Rb, relative intensity ratio of 144.1

STAT1a siRNA: siRNA SEQ ID NO: 71 (Dharmacon), targets human transcription factor ISGF-3 M97935 (GGAAGACCCAAUCCAGAUG; chemistry not given here) has a reported Rb, relative intensity ratio of 136.5

* * *

- Test system: ISRE
- Test protocol: siRNA transfection array, ISRE EGFP reporter, HepG2 cells
- Format: cell-based, human
- Study conditions: ISRE reporter, 48 h culture
Relative intensity ratio of EGFP fluorescence against Scramble II Duplex, ISRE reference
// note: answer is a bare numeric in %

c-Fos siRNA: siRNA SEQ ID NO: 53 (Dharmacon), targets human c-fos K00650 (GCGGAGACAGACCAACUAG; chemistry not given here) has a reported Relative intensity ratio of EGFP fluorescence against Scramble II Duplex, ISRE of 72.3

c-Jun siRNA: siRNA SEQ ID NO: 54 (Dharmacon), targets human c-jun J04111 (GGUGGCACAGCUUAAACAG; chemistry not given here) has a reported Relative intensity ratio of EGFP fluorescence against Scramble II Duplex, ISRE of 111.4

NFAT3 siRNA: siRNA SEQ ID NO: 63 (Dharmacon), targets human NF-AT3 L41066 (GCCACUGACCCUACAGAUG; chemistry not given here) has a reported Relative intensity ratio of EGFP fluorescence against Scramble II Duplex, ISRE of 97.0
